Origin of measurements: patent US6489331B1

Test system: Wistar male rats
measurement_setup: 1 mg/kg, iv; after glucose-loading (10 mg/kg iv)
Where a name gives a salt, the structure may show the parent alone.
Would you kindly list Area of plasma insulin, test compound-administered group for each of these compounds?
Write it as a number; the unit ng·s/mL goes unstated.

GET /values?readout=Area of plasma insulin, test compound-administered group&item= CCCN1C(=O)N2CC(Cc3ccc(Br)cc3)N=C2c2[nH]c(C3CCCC3)nc21 (stereo not shown) [Compound 23, hydrochloride]
11.85

GET /values?readout=Area of plasma insulin, test compound-administered group&item= CCCc1nc2c([nH]1)C1=N[C@H](Cc3ccccc3)CN1C(=O)N2CCC [Compound 35, hydrochloride]
15.69

GET /values?readout=Area of plasma insulin, test compound-administered group&item= CCCN1C(=O)N2CC(Cc3cccc(F)c3)N=C2c2[nH]c(C3CCCC3)nc21 (stereo not shown) [Compound 19, hydrochloride]
13.41

GET /values?readout=Area of plasma insulin, test compound-administered group&item= CCCN1C(=O)N2CC(CCc3ccccc3)N=C2c2[nH]c(C3CCCC3)nc21 (stereo not shown) [Compound 31, hydrochloride]
9.00
